These measurements were taken from the supplement of paper PMC10567573.

// reported protein stability index for each item listed
B1: BCL2L13 (parent)
chain: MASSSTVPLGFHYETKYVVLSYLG

# Variants of: B1
# test.description: protein stability index of a GFP-peptide fusion (GPS, HEK-293T) (PSI 1-6); higher = more stable;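 also: lentivirally expressed fusions sorted by FACS into six bins by GFP to DsRed ratio, PSI derived from sequencing read proportions per bin multiplied by bin number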
# cond: c terminus: a fixed tail appended
The response must contain the number and no unit.

Solved cases below.
> print(dat)
   mutant.name  observed.value
1         T15A            1.86
2         Y13C            2.25
3         L23C            2.09
4          P8L            1.66
5          M1I            2.51

Item under review: `T15F` . Reported protein stability index? 1.5

Next entry: `S3D` 2.57

Next entry: `Y17P` 1.95

Next entry: `T6M` 2.4

Next entry: `G10L` 2.52

Next entry: `A2H` 2.74
